biological target: CD73 on U138 human neuroglioma cells (Homo sapiens); construct: U138 cells were obtained from ATCC and cultured in DMEM with 10% FBS; host or cells: U138 human neuroglioma cells; experiment: CD73 Cell-Based Assay
property-measured: IC50

Endpoint output: IC50 of CCOP(=O)(O)COC[C@H]1O[C@@H](n2ccc3c(NC4CCCC4)nc(Cl)nc32)[C@H](O)[C@@H]1O [Compound 184] . Value?
100 to 1000 nM

* * *

target: CD73 on U138 human neuroglioma cells (Homo sapiens, UniProt P21589); construct: U138 cells were obtained from ATCC and cultured in DMEM with 10% FBS; host or cells: U138 human neuroglioma cells; assay: CD73 Cell-Based Assay; details: U138 cells, AMP substrate, 2 hours at 37° C., inorganic phosphate by malachite green
pIC50: −log10 of the molar value.
// reported pIC50 for each item listed

C[C@@H](Nc1nc(C#N)nc2c1cnn2[C@@H]1O[C@H](CS(=O)(=O)CP(=O)(O)O)[C@@H](O)[C@H]1O)c1ccc(F)cc1 ... > 8.00

Give pIC50 (CD73 on U138 human neuroglioma cells (Homo sapiens, UniProt P21589)) of the following compound: `C[C@H](c1ccccc1)N(C)c1nc(Cl)nc2c1ncn2[C@@H]1O[C@H](COCP(=O)(O)O)[C@@H](O)[C@H]1O`
> 8.00

Give pIC50 (CD73 on U138 human neuroglioma cells (Homo sapiens, UniProt P21589)) of the following compound: `CC(C)Nc1nc(C#N)nc2c1ncn2[C@@H]1O[C@H](COCP(=O)(O)O)[C@@H](O)[C@H]1O`
6.00 to 7.00

Give pIC50 (CD73 on U138 human neuroglioma cells (Homo sapiens, UniProt P21589)) of the following compound: `O=P(O)(O)COC[C@H]1O[C@@H](n2ccc3c(NC4CCC4)nc(Cl)nc32)[C@H](O)[C@@H]1O`
> 8.00

Give pIC50 (CD73 on U138 human neuroglioma cells (Homo sapiens, UniProt P21589)) of the following compound: `C[C@@H](Nc1nc(Cl)nc2c1ccn2[C@@H]1O[C@H](CS(=O)(=O)CP(=O)(O)O)[C@@H](O)[C@H]1O)c1ccccc1`
> 8.00

Give pIC50 (CD73 on U138 human neuroglioma cells (Homo sapiens, UniProt P21589)) of the following compound: `O=P(O)(O)COC[C@H]1O[C@@H](n2ccc3c(NC4CCCC4)nc(C(F)F)nc32)[C@H](O)[C@@H]1O`
7.00 to 8.00

* * *

Biological target: Human CD73 (Homo sapiens, UniProt P21589)
Construct: purchased R&D Systems; host or cells: CHO cells
Sequence (P21589 27-549): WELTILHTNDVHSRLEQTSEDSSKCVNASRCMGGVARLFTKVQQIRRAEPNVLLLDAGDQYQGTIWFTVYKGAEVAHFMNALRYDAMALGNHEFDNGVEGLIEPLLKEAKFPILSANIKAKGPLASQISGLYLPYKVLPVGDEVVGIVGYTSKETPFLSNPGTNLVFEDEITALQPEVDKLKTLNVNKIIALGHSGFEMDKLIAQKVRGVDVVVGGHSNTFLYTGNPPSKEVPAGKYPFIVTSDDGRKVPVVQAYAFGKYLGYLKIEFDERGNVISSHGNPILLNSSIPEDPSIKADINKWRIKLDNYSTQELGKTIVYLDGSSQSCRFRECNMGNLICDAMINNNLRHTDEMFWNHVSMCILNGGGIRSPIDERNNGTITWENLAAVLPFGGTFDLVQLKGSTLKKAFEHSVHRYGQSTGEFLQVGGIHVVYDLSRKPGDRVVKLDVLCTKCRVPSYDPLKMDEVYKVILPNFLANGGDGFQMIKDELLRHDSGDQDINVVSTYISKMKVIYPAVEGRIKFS
Assay: CD73 Enzyme Assay
Format: biochemical
Conditions: 0.25 nM hCD73, 25 μM AMP, kinetic read at 360 nm; read-out: CD73 Enzyme Assay IC50
property-measured: IC50

Endpoint output: IC50 of `O=P(O)(O)CS(=O)(=O)C[C@H]1O[C@@H](n2ccc3c(NC4CCCC4)nc(Cl)nc32)[C@H](O)[C@@H]1O` . Value?
< 10 nM

Endpoint output: IC50 of `C[C@@H](Nc1nc(Cl)nc2c1ccn2[C@@H]1O[C@H](CS(=O)(=O)CP(=O)(O)O)[C@@H](O)[C@H]1O)c1ccccc1` . Value?
< 10 nM

Endpoint output: IC50 of `C[C@H](Nc1nc(Cl)nc2c1ccn2[C@@H]1O[C@H](COCP(=O)(O)O)[C@@H](O)[C@H]1O)c1ccccc1F` . Value?
< 10 nM

Endpoint output: IC50 of O=P(O)(O)CS(=O)(=O)C[C@H]1O[C@@H](n2ccc3c(NC4CC5CC5C4)nc(Cl)nc32)[C@H](O)[C@@H]1O (stereo partly drawn) . Value?
< 10 nM

Endpoint output: IC50 of `O=P(O)(O)COC[C@H]1O[C@@H](n2ccc3c(NC4CCCC4)nc(C#CC4(O)CC4)nc32)[C@H](O)[C@@H]1O` . Value?
< 10 nM

Endpoint output: IC50 of `CCNc1nc(Cl)nc2c1ccn2[C@@H]1O[C@H](CS(=O)(=O)CP(=O)(O)O)[C@@H](O)[C@H]1O` . Value?
10 to 100 nM

* * *

biological target: CD73 on U138 human neuroglioma cells (Homo sapiens, UniProt P21589); construct: U138 cells were obtained from ATCC and cultured in DMEM with 10% FBS; host or cells: U138 human neuroglioma cells; test: CD73 Cell-Based Assay; details: U138 cells, AMP substrate, 2 hours at 37° C., inorganic phosphate by malachite green
pIC50: −log10 of the molar value.
property-measured: pIC50

O=P(O)(O)COC[C@H]1O[C@@H](n2cnc3c(N4CCCC4)ncnc32)[C@H](O)[C@@H]1O ... 6.00 to 7.00
CC(C)(C)C(=O)OCOP(=O)(COC[C@H]1O[C@@H](n2ccc3c(N4CC5CCCC5C4)nc(Cl)nc32)[C@H](O)[C@@H]1O)OCOC(=O)C(C)(C)C (stereo partly drawn) ... 7.00 to 8.00
O=P(O)(O)COC[C@H]1O[C@@H](n2ccc3c(NC4CCCC4)nc(C#CC4(O)CC4)nc32)[C@H](O)[C@@H]1O ... > 8.00
N#Cc1nc(N2CCCCC2)c2ccn([C@@H]3O[C@H](COCP(=O)(O)O)[C@@H](O)[C@H]3O)c2n1 ... 7.00 to 8.00
O=P(O)(O)COC[C@H]1O[C@@H](n2ccc3c(NC4CCOCC4)nc(Cl)nc32)[C@H](O)[C@@H]1O ... 7.00 to 8.00

Endpoint output: pIC50 of `C[C@H](Nc1nc(Cl)nc2c1ccn2[C@@H]1O[C@H](COCP(=O)(O)O)[C@@H](O)[C@H]1O)c1ccc(C(F)(F)F)cc1` . Value?
> 8.00

* * *

target: CD73 on U138 human neuroglioma cells (Homo sapiens, UniProt P21589); construct: U138 cells were obtained from ATCC and cultured in DMEM with 10% FBS; host or cells: U138 human neuroglioma cells; test: CD73 Cell-Based Assay; settings: U138 cells, AMP substrate, 2 hours at 37° C., inorganic phosphate by malachite green
pIC50: −log10 of the molar value.
property-measured: pIC50

Endpoint output: pIC50 of N#Cc1nc(N2CC3CCCC3C2)c2ccn([C@@H]3O[C@H](CS(=O)(=O)CP(=O)(O)O)[C@@H](O)[C@H]3O)c2n1 (stereo partly drawn) [Compound 158] . Value?
> 8.00

Endpoint output: pIC50 of CCOc1nc(NC2CCCC2)c2ccn([C@@H]3O[C@H](COCP(=O)(O)O)[C@@H](O)[C@H]3O)c2n1 [Compound 262] . Value?
7.00 to 8.00

Endpoint output: pIC50 of C[C@H](Nc1nc(Cl)nc2c1ccn2[C@@H]1O[C@H](COCP(=O)(O)O)[C@@H](O)[C@H]1O)c1ccc(C2CC2)cc1 [Compound 198] . Value?
> 8.00

* * *

Target: CD73 on U138 human neuroglioma cells (Homo sapiens)
Construct: U138 cells were obtained from ATCC and cultured in DMEM with 10% FBS; host or cells: U138 human neuroglioma cells
Sequence (P21589 27-549): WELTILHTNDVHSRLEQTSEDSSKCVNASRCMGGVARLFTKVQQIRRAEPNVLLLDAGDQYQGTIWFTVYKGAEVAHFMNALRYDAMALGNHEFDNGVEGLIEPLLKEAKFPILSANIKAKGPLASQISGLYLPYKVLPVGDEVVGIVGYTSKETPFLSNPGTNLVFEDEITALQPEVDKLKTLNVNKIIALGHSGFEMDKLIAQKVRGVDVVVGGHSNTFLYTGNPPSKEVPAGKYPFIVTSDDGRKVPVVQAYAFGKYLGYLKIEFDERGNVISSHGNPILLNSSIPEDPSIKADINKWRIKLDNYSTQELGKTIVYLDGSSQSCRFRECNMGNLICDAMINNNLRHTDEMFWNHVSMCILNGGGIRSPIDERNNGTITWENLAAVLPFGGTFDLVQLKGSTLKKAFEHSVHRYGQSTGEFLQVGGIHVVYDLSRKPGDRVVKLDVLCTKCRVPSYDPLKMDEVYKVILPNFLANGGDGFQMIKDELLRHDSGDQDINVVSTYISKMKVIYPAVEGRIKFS
Experiment: CD73 Cell-Based Assay
Settings: U138 cells, AMP substrate, 2 hours at 37° C., inorganic phosphate by malachite green
// reported IC50 for each item listed

Some solved entries appear below for comparison.
O=P(O)(O)COC[C@H]1O[C@@H](c2c[nH]c3c(N4CC5CCCC5C4)nc(Cl)nc23)[C@H](O)[C@@H]1O (stereo partly drawn) ... < 0.01 µM
C[C@@H](Nc1nc(C#N)nc2c1ccn2[C@@H]1O[C@H](COCP(=O)(O)O)[C@@H](O)[C@H]1O)c1ccc(F)cn1 ... 0.01 to 0.1 µM
CC#Cc1nc(NC2CCCC2)c2ccn([C@@H]3O[C@H](COCP(=O)(O)O)[C@@H](O)[C@H]3O)c2n1 ... < 0.01 µM
O=P(O)(O)CS(=O)(=O)C[C@H]1O[C@@H](n2ccc3c(NC4CCCC4)nc(C(F)(F)F)nc32)[C@H](O)[C@@H]1O ... 0.01 to 0.1 µM
N#Cc1nc(N2CC3CCCC3C2)c2ccn([C@@H]3O[C@H](COCP(=O)(O)O)[C@@H](O)[C@H]3O)c2n1 (stereo partly drawn) ... < 0.01 µM

Shift focus to the following entry.
Endpoint output: IC50 of `C[C@@H](Nc1nc(Cl)nc2c1ccn2[C@@H]1O[C@H](CS(=O)(=O)CP(=O)(O)O)[C@@H](O)[C@H]1O)c1cccc(C#N)c1` . Value?
< 0.01 µM
